Each record here notes measured melting point.

Here is how some compounds turned out for melting point.
[
  {
    "compound": "C[C@H]1CCCN(C(=O)[C@@H]2Cc3cc(Br)ccc3N2c2ccc(=O)n(C)n2)C1 [Example 93]",
    "melting point": "241 to 242 °C"
  },
  {
    "compound": "CC1CCCN(C(=O)[C@@H]2Cc3ccccc3N2c2cnccn2)C1 (some centres unmarked) [Example 59]",
    "melting point": "177 to 179 °C"
  },
  {
    "compound": "C[C@@H]1CCCN(C(=O)[C@@H]2Cc3ccccc3N2c2nc3ccccc3o2)C1 [Example 16]",
    "melting point": "220 to 222 °C"
  },
  {
    "compound": "CCCCn1nc(N2c3ccccc3C[C@H]2C(=O)N2CCC[C@H](C)C2)ccc1=O [Example 74]",
    "melting point": "186 to 188 °C"
  },
  {
    "compound": "C[C@H]1CCCN(C(=O)[C@@H]2Cc3ccccc3N2c2ccc3nccn3n2)C1 [Example 78]",
    "melting point": "190 to 193 °C"
  }
]

// query Return melting point for the following compound: CC(C)Cn1nc(N2c3ccccc3C[C@H]2C(=O)N2CCC[C@H](C)C2)ccc1=O [Example 75]
// result 215 to 216 °C

// query Return melting point for the following compound: CC1CCCN(C(=O)C2Cc3ccccc3N2c2ncccn2)C1 (centres unmarked) [Example 6]
// result 156 to 158 °C

// query Return melting point for the following compound: O=C(C1Cc2ccccc2N1c1ncccn1)N1CCCC(c2ccccc2)C1 (racemic) [Example 51]
// result 145 to 151 °C

// query Return melting point for the following compound: Cc1ccc(N2c3ccccc3CC2C(=O)N2C[C@H](C)C[C@H](C)C2)nc1 (relative stereo) [Example 11]
// result 137 to 139 °C

// query Return melting point for the following compound: Cn1nc(N2c3ccccc3C[C@H]2C(=O)N2CCCCCCC2)ccc1=O (hydrate or solvate) [Example 119]
// result 179 to 182 °C

// query Return melting point for the following compound: C[C@H]1CCCN(C(=O)[C@@H]2Cc3cc(Cl)ccc3N2c2ccc(=O)n(C)n2)C1 [Example 94]
// result 243 to 244 °C

###

propertyLabel: melting point

Here is how some molecules turned out for melting point.
[
  {
    "molecule": "C=Cc1ccc2c(c1)C[C@@H](C(=O)N1CCC[C@H](C)C1)N2c1cccnn1",
    "melting point": "103 to 106 °C"
  },
  {
    "molecule": "Cc1ccc(N2c3ccccc3C[C@H]2C(=O)N2C[C@H](C)C[C@H](C)C2)nn1",
    "melting point": "158 to 159 °C"
  },
  {
    "molecule": "COc1ccc(N2c3ccccc3C[C@H]2C(=O)N2C[C@H](C)C[C@H](C)C2)nn1",
    "melting point": "173 to 175 °C"
  },
  {
    "molecule": "COc1ccc2c(c1)N(c1ccc(=O)n(C)n1)C(C(=O)N1CCCC(C)C1)C2 (racemic)",
    "melting point": "182 to 184 °C"
  },
  {
    "molecule": "C[C@@H]1C[C@H](C)CN(C(=O)[C@@H]2Cc3ccccc3N2c2nccc3ccccc23)C1",
    "melting point": "173 to 175 °C"
  }
]

// query Return melting point for the following molecule: `CCCn1nc(N2c3ccccc3C[C@H]2C(=O)N2CCC[C@H](C)C2)ccc1=O`
// result 183 to 185 °C

// query Return melting point for the following molecule: `C[C@H]1CCCN(C(=O)[C@@H]2Cc3ccccc3N2c2ccc(Cl)nn2)C1`
// result 183 to 186 °C

// query Return melting point for the following molecule: COc1ccc2c(c1)N(c1ccc(Cl)nn1)C(C(=O)N1CCC[C@H](C)C1)C2 (stereo partly shown)
// result 184 to 186 °C

// query Return melting point for the following molecule: CC1CCCN(C(=O)C2Cc3cc(F)ccc3N2c2cccnn2)C1 (racemic)
// result 155 to 157 °C

// query Return melting point for the following molecule: `C[C@H]1CCCN(C(=O)[C@@H]2Cc3ccccc3N2c2cccnc2)C1`
// result 114 to 115 °C

// query Return melting point for the following molecule: CC1CC(C)CN(C(=O)[C@@H]2Cc3ccccc3N2c2ncccn2)C1 (stereo partly shown)
// result 237 to 239 °C

// query Return melting point for the following molecule: O=C(C1Cc2ccccc2N1c1ncccn1)N1CCCC(F)(F)C1 (racemic)
// result 172 to 174 °C

// query Return melting point for the following molecule: COc1ccc2c(c1)CC(C(=O)N1CCCC(C)C1)N2c1ccc(=O)n(C)n1 (racemic)
// result 248 to 250 °C

// query Return melting point for the following molecule: `C[C@H]1CCCN(C(=O)[C@@H]2Cc3ccccc3N2c2ccccn2)C1`
// result 186 to 189 °C

// query Return melting point for the following molecule: CC1CCCN(C(=O)C2Cc3cc(F)ccc3N2c2ccc(=O)n(C)n2)C1 (racemic)
// result 217 to 219 °C

// query Return melting point for the following molecule: `COc1ccc(N2c3ccccc3C[C@H]2C(=O)N2CCC[C@H](C)C2)nn1`
// result 134 to 137 °C
